target: human ALDH2*2 recombinant mutant enzyme (E487K) (Homo sapiens, UniProt P05091, E504K)
Construct: His-tag (pTrcHis vector) (N); made in house; host or cells: E. coli BL21
Sequence (P05091 18-517 E504K): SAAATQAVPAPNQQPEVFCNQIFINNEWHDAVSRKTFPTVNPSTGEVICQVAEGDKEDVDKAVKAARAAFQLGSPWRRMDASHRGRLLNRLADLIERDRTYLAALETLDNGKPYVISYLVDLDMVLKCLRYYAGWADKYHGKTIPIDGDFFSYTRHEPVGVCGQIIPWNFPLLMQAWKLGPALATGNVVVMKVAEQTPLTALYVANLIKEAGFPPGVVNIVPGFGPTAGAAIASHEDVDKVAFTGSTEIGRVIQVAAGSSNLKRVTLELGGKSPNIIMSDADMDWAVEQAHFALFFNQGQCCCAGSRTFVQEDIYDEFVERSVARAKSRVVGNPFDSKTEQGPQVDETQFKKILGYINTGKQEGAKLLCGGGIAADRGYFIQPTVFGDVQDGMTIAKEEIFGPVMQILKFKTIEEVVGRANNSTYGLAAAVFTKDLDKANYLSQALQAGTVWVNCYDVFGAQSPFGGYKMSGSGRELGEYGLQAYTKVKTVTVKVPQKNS
assay.details: ALDH2 enzymatic assay (NADH at 340 nm), recombinant mutant enzyme
Assay type: biochemical
Design: key: −: no activation or inhibition; +: activation less than control 1; ++: activation similar to control 1, within 10%; +++: activation more than control 1 and less than control (compound 161); ++++: activation similar to compound 161, within 10%
measurement.conditions: activation relative to benchmarks control 1 and compound 161
measurement.name: ALDH2 (mutant)

[[record]]
molecule = "CCC(C)Sc1nccc(Cl)c1C(=O)NCc1ccc(OC)c(F)c1 (centres unmarked) [Compound 217]"
target = "human ALDH2*2 recombinant mutant enzyme (E487K) (Homo sapiens, UniProt P05091, E504K)"
measured_result = "++"

[[record]]
molecule = "COc1ccc(CNC(=O)c2c(Cl)ccnc2OC2CCCC2)cc1F [Compound 199]"
target = "human ALDH2*2 recombinant mutant enzyme (E487K) (Homo sapiens, UniProt P05091, E504K)"
measured_result = "++"

[[record]]
molecule = "COc1cccc(CNC(=O)c2c(Cl)cccc2Br)c1 [Compound 107]"
target = "human ALDH2*2 recombinant mutant enzyme (E487K) (Homo sapiens, UniProt P05091, E504K)"
measured_result = "+"

[[record]]
molecule = "COc1ccc(CNC(=O)c2c(Cl)ccnc2Cl)cc1F [Compound 157]"
target = "human ALDH2*2 recombinant mutant enzyme (E487K) (Homo sapiens, UniProt P05091, E504K)"
measured_result = "++"


Task: ALDH2 (mutant) lookup needed for O=C(NCc1ccc2ncsc2c1)c1c(Cl)ccnc1OCC1CC1 [Compound 264] , thanks.
Output: −

Task: Then what about the molecule COc1ccc(CNC(=O)c2c(Cl)ccnc2SC(C)C)cc1F [Compound 216] ?
Output: +

====

target: CYP1A2 (Homo sapiens, UniProt P05177)
Sequence (P05177 whole entry): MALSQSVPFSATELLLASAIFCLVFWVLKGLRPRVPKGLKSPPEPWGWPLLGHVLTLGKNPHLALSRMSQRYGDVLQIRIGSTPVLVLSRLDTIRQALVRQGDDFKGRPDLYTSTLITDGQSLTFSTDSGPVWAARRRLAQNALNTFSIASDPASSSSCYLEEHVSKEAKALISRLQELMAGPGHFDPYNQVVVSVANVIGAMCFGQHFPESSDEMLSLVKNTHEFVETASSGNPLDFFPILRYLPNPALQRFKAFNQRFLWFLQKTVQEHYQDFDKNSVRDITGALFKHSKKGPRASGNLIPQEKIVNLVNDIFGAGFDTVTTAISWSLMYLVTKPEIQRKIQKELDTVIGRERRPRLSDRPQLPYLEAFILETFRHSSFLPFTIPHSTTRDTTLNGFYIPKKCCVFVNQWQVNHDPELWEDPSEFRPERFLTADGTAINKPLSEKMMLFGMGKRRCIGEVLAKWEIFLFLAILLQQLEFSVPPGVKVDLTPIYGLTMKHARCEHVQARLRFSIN
assay.details: Cyp inhibition 1A2
Type: in vitro ADME
Set-up: dose or concentration left out as unconfirmed
measurement.name: inhibition (%)
Express your answer in %, writing the number without its unit.

Task: inhibition lookup needed for COc1ccc(CNC(=O)c2c(Cl)ccnc2OCC2CC2)cc1F [Compound 161] , thanks.
Output: 35
